Listing of entries alongside the reported activity at 100 µM.
# STUDY SYSTEM: NR1/NR2C (Homo sapiens, UniProt Q05586+Q14957)
# Construct: expressed in transfected cells; host or cells: Xenopus laevis oocytes
# Sequence (Q14957 20-1233, species assumed, other chains not shown): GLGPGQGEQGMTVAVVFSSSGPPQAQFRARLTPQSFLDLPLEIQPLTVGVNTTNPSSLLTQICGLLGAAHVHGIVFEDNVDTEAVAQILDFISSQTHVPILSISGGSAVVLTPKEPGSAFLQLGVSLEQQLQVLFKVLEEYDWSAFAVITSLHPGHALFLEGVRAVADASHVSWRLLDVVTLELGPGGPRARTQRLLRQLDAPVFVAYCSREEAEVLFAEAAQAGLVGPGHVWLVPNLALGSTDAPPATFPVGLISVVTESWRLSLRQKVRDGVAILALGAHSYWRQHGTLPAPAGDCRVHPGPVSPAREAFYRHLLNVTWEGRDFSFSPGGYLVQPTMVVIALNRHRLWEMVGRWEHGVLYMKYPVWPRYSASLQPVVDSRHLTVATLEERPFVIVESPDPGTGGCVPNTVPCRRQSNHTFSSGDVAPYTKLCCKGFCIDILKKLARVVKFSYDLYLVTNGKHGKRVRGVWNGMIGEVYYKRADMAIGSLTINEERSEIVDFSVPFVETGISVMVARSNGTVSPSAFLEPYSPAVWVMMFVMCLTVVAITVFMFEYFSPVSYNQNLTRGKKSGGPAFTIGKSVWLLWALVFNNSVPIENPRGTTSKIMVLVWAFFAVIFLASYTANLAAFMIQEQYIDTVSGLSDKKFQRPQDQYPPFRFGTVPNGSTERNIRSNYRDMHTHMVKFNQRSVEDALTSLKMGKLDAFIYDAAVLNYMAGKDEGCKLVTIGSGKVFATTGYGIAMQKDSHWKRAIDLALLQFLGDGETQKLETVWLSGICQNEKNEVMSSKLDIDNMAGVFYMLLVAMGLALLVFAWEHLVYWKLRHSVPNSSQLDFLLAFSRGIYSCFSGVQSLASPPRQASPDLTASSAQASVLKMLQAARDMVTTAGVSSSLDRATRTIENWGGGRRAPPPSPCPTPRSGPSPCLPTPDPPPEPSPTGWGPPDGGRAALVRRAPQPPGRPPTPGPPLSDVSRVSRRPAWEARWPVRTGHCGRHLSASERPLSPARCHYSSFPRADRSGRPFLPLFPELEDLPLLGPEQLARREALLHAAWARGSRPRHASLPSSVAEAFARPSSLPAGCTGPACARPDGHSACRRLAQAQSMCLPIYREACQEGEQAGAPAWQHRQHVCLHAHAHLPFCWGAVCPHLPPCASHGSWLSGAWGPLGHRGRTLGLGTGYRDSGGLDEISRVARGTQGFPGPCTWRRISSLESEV
# ASSAY PROTOCOL: Two electrode voltage clamp, Xenopus laevis oocytes expressing NR1/NR2C
# Type: cell-based
# TEST SETTINGS: at 100 μM; read-out: 2C percent effect at the maximum tested concentration
Write the answer as a number in %, unit excluded.

Reference set (7 entries):
{"COMPOUND": "COc1ccc(OCC2c3cc(OC)c(OC)cc3CCN2C(=O)Nc2ccc(Cl)cc2)cc1 (centres unmarked) [compound 1411]", "ENDPOINT VALUE": 84}
{"COMPOUND": "COc1ccc(OCC2c3cc(OC)c(OC)cc3CCN2C(=O)c2ccc(Br)cc2)cc1 (centres unmarked) [compound 1393]", "ENDPOINT VALUE": 96}
{"COMPOUND": "COc1ccc(OCC2c3cc(OC)c(OC)cc3CCN2C(=O)c2ccc([N+](=O)[O-])cc2)cc1 (centres unmarked) [compound 1370]", "ENDPOINT VALUE": 83}
{"COMPOUND": "CSC1=NCCN1C(=O)c1ccc(C)cc1 [compound 1344]", "ENDPOINT VALUE": 88}
{"COMPOUND": "COc1ccc(OCC2c3cc(OC)c(OC)cc3CCN2C(=O)c2ccc(C)cc2)cc1 (centres unmarked) [compound 1371]", "ENDPOINT VALUE": 89}
{"COMPOUND": "CC1CCc2c(sc(NC(=O)c3ccc(C(C)(C)C)cc3)c2C(=O)O)C1 (centres unmarked) [compound 1481]", "ENDPOINT VALUE": 97}
{"COMPOUND": "COc1ccc(OCC2c3cc(OC)c(OC)cc3CCN2C(=O)c2ccccc2C)cc1 (centres unmarked) [compound 1263]", "ENDPOINT VALUE": 105}

Then there is this compound:
In: Param item = COc1cc2c(cc1OC)C(COc1ccc(SC)cc1)N(C(=O)c1cccc(Cl)c1)CC2 (centres unmarked) [1180-13] ; retrieve measured activity at 100 µM.
Out: 97
